experiment: Pharmacokinetics in rats, plasma and brain by LC-MS/MS; assay type: in vivo, Sprague Dawley rats; settings: male, Sprague Dawley, in vivo, iv; plasma, single i.v. 10 mg/kg, rat
value_type: AUC(0-t) (µg·h/mL)
Numbers only; they are read as µg·h/mL.

Incoming: Give the measured AUC(0-t) of CCCCCC1=C(NCC)C(=O)C(CC=C(C)CCC=C(C)C)=C(O)C1=O [VCE-003.2] .
Outgoing: 475

----------
test: Pharmacokinetics in rats, plasma and brain by LC-MS/MS; type: in vivo, Sprague Dawley rats; details: male, Sprague Dawley, in vivo, iv; plasma, single i.v. 10 mg/kg, rat
value_type: Tmax (min)
Expressed in min, but write only the number.

Incoming: Bench note: what Tmax did CCCCCC1=C(NCC)C(=O)C(CC=C(C)CCC=C(C)C)=C(O)C1=O show?
Outgoing: 4.8

This collection of values is drawn from paper PMC6407204.
